ASSAY_SUMMARY: Components of the Cytosolic LPS Sensing Pathway: Gene Identification via Genome-wide siRNA Screen;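 also: robust z of the log signal after scaling to non-targeting control siRNA wells of the plate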
CONDITION: RAW264.7 macrophages, IL-1a HTRF, actives lie on both sides, screened at 100 nM (by protocol), cells primed 5 h with Pam3CSK4 first
Among all 53,000 sequences or so, about 3,700 (7%) were called active. Only a selection was taken, and actives are over-represented in it overall.
PROPERTY_NAME: z-score
When you answer, write just the number.

Query: Tell me its z-score given CGAUCACCAUGAUGAAUUCTT against Bex3 as the entry.
Result: -0.128

Query: State its z-score for this sequence: GCUCUACAUCGAAUUGCUGTT against Lig4
Result: 4.14

Query: Write down z-score measured for item GCUGCUGGAUGCAACCAAATT against Slc16a3
Result: -0.379

Query: Using the record for GGAGCGAUCUGAAAAUUUGTT against Rasip1 , state its measured z-score.
Result: -0.365

Query: Report z-score, nothing else, for this sequence: GGACUUCAACUUGAUGGAGTT against Add2
Result: 2.02

Query: Look up z-score of GGAUCCAAGGGCAAAAGAUTT against St6galnac1 and report it.
Result: -1.36

Query: Give the reported value of z-score for this record: CCAAGAAUGCCCAGCAAGUTT against E4f1
Result: 2.39

Query: Please supply the value of reported z-score for the item GGAAAAACAGCUUAACACUTT against Pate4
Result: 0.66

Query: Note down z-score recorded for GGUAUUUUGACCGAAUCAATT against Add3
Result: -0.294

Query: Answer with reported z-score of GGUGAAGGUACGAGUAAGATT against Prkra
Result: -0.809

Query: Give a short answer stating reported z-score for GGUCGGCCAAUUACAAUGUTT against Eml4 .
Result: 2.16

Query: Using known records, supply z-score for CCCUGGUAAACACCAAUAGTT against Ctnna1
Result: 0.849

Query: Please supply the value of reported z-score for the item GCAAGUAACUACCAGAGUATT against Cfap20
Result: -0.488

Query: Please give measured z-score of the following entry: GGAAAACAGCUUUGAUUGGTT against Tmem232
Result: 0.868

Query: Give z-score for GCAUUUAUAUGAGAUGCAGTT against Fam210a
Result: 0.108

Query: Respond only with z-score recorded for GCAUUAGGAAUUCAAUUAGTT against Adamts1
Result: 0.813

Query: Could you please provide reported z-score for GCUCUAGGAAUCCAAAUAUTT against 9930014A18Rik ? Thanks!
Result: 0.8

Query: For the sequence GCCCGUCGGAUAUAAGAUUTT against Cd247 , give its measured z-score value.
Result: -0.351

Query: Tell us which z-score value is on record for GGACCAGCUUUUCAACAUUTT against F8
Result: 0.141

Query: Find the measured z-score of GGACCAUACAUAUUCAAAATT against Aph1b and report it.
Result: 0.0294

Query: Read off the recorded z-score for GCCGGAUGAAGGACUUUACTT against Dcc
Result: -1.98

Query: Give reported z-score value for GGAACUGAUUGAAAACAUCTT against Syce2
Result: 2.97

Query: Give the measured z-score for GGGUUAGGUUGGGAUGGAUTT against Ccnd3
Result: -0.466

Query: For CGUAAUACAAUCCAGUUCATT against Aqr , write its z-score.
Result: -2.18

Query: Let me know recorded z-score for GGCUGUGUAUUACUGCGCUTT against Vpreb2 , thanks.
Result: -0.236

Query: For the sequence GCACGAGACACUUUUCAUUTT against Dnajb5 , give its measured z-score value.
Result: -0.0852

Query: Quote z-score reported for GGAACAUUCUCUCCUUAUGTT against Ctps please.
Result: -0.168

Query: State its z-score: GGUUCUGACCACCUACAUATT against Htr3a
Result: -1.62

Query: Determine from records and report z-score for GCAUUAAGCACGAGAAAAATT against Slc18a2
Result: 0.575

Query: Report z-score for GGUGGAAUUGAAGAGUUCATT against Rcor3
Result: 0.24

Query: Identify measured z-score associated with GGCAUCCACCCUAAGGUCATT against Keap1
Result: 1.03

Query: Find the measured z-score of GCUAAGGCUUGGAAUGACATT against Maged1 and report it.
Result: -0.105

Query: Please give measured z-score of the following entry: GCUAAAAACAACUAGGAAATT against Wdr60
Result: 0.391

Query: Input GGGUGAGAAAAUUCACGAGTT against Tubg2 , output reported z-score.
Result: 0.536

Query: Report measured z-score; entry is GGCCAGAAAGGCAGCAAAGTT against Msgn1
Result: -1.03

Query: Check the records and state z-score for GCAUUCAGGACCUGUGGCUTT against Olfr890
Result: -2.33

Query: Please report z-score for the following sequence: GCACCUUCAGCUAUCUAACTT against Nepn
Result: 0.478

Query: Give the measured z-score for GGAAGUACAGAAUUUUGAATT against Sft2d2
Result: 1.46

Query: Give the reported z-score for this sequence. GGAGGCUGUUGUGGAUCUUTT against Acin1
Result: 1.03

Query: Look up z-score of GGAUGAGAGUAAGAUCUCGTT against Vipr2 and report it.
Result: -0.296

Query: State its z-score for this sequence: CCAUUGGUUUUGAGGAUAUTT against Pomp
Result: -1.18

Query: For the sequence GUUGUGUUCUGAUUGUUUUTT against Olfr1020 , give its reported z-score.
Result: 2.03

Query: Check the records and state z-score for GGUCAAAGUCUAGGAGUUUTT against Spp1
Result: 2.56

Query: Please list z-score recorded for the sequence GGGCUUUCUUGGUUUUAUCTT against Depp1
Result: -0.377

Query: Supply measured z-score of CCCUAGGUCAUAGCUUGACTT against Crtc1 in your reply.
Result: 1.58

Query: Quickly give me recorded z-score for GCAUCUCACUCGUAAAGGUTT against Tmprss11f
Result: -0.555

Query: Return z-score (reported value) for this sequence: CCAGCAAGUAAAACAAGCUTT against Olfr803
Result: 0.998

Query: Entry GGGACUCAGUGUUUAUUGATT against Thsd4 needs its z-score filled in; supply it.
Result: 0.216

Query: Hello, please tell me recorded z-score for this one: GCUAGAUUUGAUGGUUCAGTT against Cacng5
Result: -1.62

Query: Provide only the value of recorded z-score for CCUGAGACCGAAUUUUACCTT against Cer1
Result: -0.209
